Source of measurements: ChEMBL document CHEMBL1149451

target: Protein kinase C iota type (Homo sapiens) (UniProt P41743); test: Inhibition of human PKC iota expressed in Sf9 cells at 10 uM; values are per cent of control
Sequence (P41743 whole entry): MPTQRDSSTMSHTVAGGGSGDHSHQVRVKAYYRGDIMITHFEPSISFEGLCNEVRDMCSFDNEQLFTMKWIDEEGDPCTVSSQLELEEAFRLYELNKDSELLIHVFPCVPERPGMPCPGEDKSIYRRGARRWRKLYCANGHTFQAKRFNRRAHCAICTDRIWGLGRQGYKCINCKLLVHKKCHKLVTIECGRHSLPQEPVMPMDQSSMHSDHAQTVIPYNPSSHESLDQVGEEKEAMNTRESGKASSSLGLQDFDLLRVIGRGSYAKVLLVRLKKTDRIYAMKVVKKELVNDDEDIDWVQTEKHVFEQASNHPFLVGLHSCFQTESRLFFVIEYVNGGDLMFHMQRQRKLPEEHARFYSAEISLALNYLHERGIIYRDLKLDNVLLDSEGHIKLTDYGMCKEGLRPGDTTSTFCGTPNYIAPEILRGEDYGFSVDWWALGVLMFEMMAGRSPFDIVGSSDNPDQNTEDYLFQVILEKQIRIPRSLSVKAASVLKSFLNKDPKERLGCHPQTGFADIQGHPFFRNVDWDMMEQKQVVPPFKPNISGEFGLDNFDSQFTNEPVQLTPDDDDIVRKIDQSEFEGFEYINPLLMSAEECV
Measured quantity: residual activity (%)

compound="COc1cc(C2=C(c3c[nH]c4ccccc34)C(=O)NC2=O)cc(OC)c1OC [MALEIMIDE]" measured_quantity="residual activity" units_symbol=% obs_value=81
compound=O=C1NC(=O)C(c2c[nH]c3ccccc23)=C1c1ccccc1 measured_quantity="residual activity" units_symbol=% obs_value=95
compound=COc1cc(C2=C(c3ccccc3)C(=O)NC2=O)cc(OC)c1OC measured_quantity="residual activity" units_symbol=% obs_value=99
compound=COc1ccc(C2=C(c3c[nH]c4ccccc34)C(=O)NC2=O)cc1 measured_quantity="residual activity" units_symbol=% obs_value=77
compound=O=C1NC(=O)c2c1c1ccccc1c1[nH]c3ccccc3c21 measured_quantity="residual activity" units_symbol=% obs_value=98
compound=COc1ccc(C2=C(c3ccccc3)C(=O)NC2=O)cc1 measured_quantity="residual activity" units_symbol=% obs_value=102

###

target: Receptor tyrosine-protein kinase erbB-2 (Homo sapiens) (UniProt P04626); assay: Inhibition of human ERBB2 expressed in Sf9 cells at 10 uM; values are per cent of control
Sequence (P04626 whole entry): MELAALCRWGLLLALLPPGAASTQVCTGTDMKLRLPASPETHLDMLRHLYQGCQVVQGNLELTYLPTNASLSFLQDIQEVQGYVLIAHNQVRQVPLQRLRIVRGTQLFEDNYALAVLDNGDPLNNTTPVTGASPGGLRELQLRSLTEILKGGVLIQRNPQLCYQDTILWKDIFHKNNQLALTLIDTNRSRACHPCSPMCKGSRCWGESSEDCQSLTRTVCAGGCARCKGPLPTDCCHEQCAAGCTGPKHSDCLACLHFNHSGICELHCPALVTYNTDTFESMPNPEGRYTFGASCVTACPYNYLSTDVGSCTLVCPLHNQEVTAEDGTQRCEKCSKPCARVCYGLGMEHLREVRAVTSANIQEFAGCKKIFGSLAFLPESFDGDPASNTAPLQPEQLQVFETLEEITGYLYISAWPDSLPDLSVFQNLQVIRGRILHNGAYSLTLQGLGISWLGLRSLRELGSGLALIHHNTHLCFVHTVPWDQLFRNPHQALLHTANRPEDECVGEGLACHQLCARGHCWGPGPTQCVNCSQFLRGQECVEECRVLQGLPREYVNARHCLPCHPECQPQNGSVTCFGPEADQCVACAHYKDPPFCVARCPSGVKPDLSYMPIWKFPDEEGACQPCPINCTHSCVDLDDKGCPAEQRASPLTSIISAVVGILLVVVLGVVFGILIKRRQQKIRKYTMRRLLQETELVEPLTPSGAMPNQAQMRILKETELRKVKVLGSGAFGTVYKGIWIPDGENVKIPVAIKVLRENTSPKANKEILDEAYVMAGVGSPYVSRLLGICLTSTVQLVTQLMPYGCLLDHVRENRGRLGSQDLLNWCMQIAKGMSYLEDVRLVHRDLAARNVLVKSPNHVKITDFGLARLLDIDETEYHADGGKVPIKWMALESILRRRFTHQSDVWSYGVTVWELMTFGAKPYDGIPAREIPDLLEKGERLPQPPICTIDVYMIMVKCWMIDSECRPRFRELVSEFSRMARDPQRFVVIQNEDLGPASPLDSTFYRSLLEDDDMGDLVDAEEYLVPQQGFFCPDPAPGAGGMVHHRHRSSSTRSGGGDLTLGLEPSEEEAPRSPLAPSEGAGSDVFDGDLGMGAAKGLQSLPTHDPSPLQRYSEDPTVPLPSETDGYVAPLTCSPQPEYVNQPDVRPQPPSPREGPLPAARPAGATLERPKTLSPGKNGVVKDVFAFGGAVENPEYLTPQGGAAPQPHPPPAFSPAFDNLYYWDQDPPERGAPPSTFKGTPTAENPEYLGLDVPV
Measured quantity: residual activity (%)

compound=COc1ccc(C2=C(c3cc(OC)c(OC)c(OC)c3)C(=O)NC2=O)cc1O units_symbol=% obs_value=99
compound=COc1cc(C2=C(c3c(C)[nH]c4ccccc34)C(=O)NC2=O)cc(OC)c1OC units_symbol=% obs_value=92
compound=COc1cc2c3c(c4c5ccccc5[nH]c4c2c(OC)c1OC)C(=O)NC3=O units_symbol=% obs_value=102
compound=COc1ccc(C2=C(c3c[nH]c4ccccc34)C(=O)NC2=O)cc1 units_symbol=% obs_value=93
compound=COc1cc(C2=C(c3cc[nH]c3)C(=O)NC2=O)cc(OC)c1OC units_symbol=% obs_value=91

[A] COc1cc(C2=C(c3ccccc3)C(=O)NC2=O)cc(OC)c1OC
[B] O=C1NC(=O)C(c2c[nH]c3ccccc23)=C1c1ccccc1
Query block: Pick one: A or B . Which one has the lower reported residual activity? Bench note: the answer is the label of the chosen record.
Result block: B
(B: 64%, A: 92%)

###

molecular target: Protein kinase C gamma type (Rattus norvegicus); experiment: Inhibition of rat PKC gamma expressed in Sf9 cells at 10 uM; values are per cent of control
Measured quantity: residual activity (%)

Reference set (6 entries):
molecule=O=C1NC(=O)c2c1c1ccccc1c1[nH]c3ccccc3c21 tgt="Protein kinase C gamma type (Rattus norvegicus)" obs_value=106
molecule=COc1ccc(C2=C(c3c[nH]c4ccccc34)C(=O)NC2=O)cc1 tgt="Protein kinase C gamma type (Rattus norvegicus)" obs_value=83
molecule=COc1ccc2[nH]cc(C3=C(c4cc(OC)c(OC)c(OC)c4)C(=O)NC3=O)c2c1 tgt="Protein kinase C gamma type (Rattus norvegicus)" obs_value=99
molecule=COc1ccc(C2=C(c3ccc(OC)cc3)C(=O)NC2=O)cc1 tgt="Protein kinase C gamma type (Rattus norvegicus)" obs_value=98
molecule=COc1ccc(C2=C(c3ccccc3)C(=O)NC2=O)cc1 tgt="Protein kinase C gamma type (Rattus norvegicus)" obs_value=89
molecule=O=C1NC(=O)C(c2ccccc2)=C1c1ccccc1 tgt="Protein kinase C gamma type (Rattus norvegicus)" obs_value=89

[A] COc1cc2c3c(c4c5ccccc5n(C)c4c2c(OC)c1OC)C(=O)NC3=O
[B] COc1cc(C2=C(c3cn(C)c4ccccc34)C(=O)NC2=O)cc(OC)c1OC
[C] O=C1NC(=O)C(c2c[nH]c3ccccc23)=C1c1cccc2ccccc12
Query block: Please list these molecules in decreasing order of residual activity. # format: label list in the order the request specifies
Result block: A, B, C
